System: NCI-H460
experimental_setup: read-out: Cytotoxicity test on H460 cells: IC50; H460 cells; printed as 42 nM±6
metric: IC50 (nM)
Give the number; nM is assumed, so skip it.

Prompt: What measured IC50 goes with CC[C@@]1(OC(=O)CCCBr)C(=O)OCc2c1cc1n(c2=O)Cc2c-1nc1ccccc1c2/C=N/OC(C)(C)C [ST2599] ?
Response: 42

Where do these numbers come from? They come from patent US7498340B2.
